System: Schistosoma mansoni
Experiment description: Antiparasitic activity against adult Schistosoma mansoni Puerto Rico assessed as reduction in worm pairing at 10 to 20 uM after 24 hrs by microscopic analysis
Type: functional, organism-based
Activity calls are given as the source filed them. The rule behind the calls is not given here.

{"Compound": "COc1cc(OC)cc(Sc2ccc(C(C)N(C)c3ncc4c(N)nc(N)nc4n3)cc2)c1 (stereo not drawn)", "inhibition": "Active"}
{"Compound": "COc1ccc(Oc2ccc(C(c3ccccc3)N(C)c3ncc4c(N)nc(N)nc4n3)cc2)cc1 (stereo not drawn)", "inhibition": "Active"}
{"Compound": "COc1cc(OC)cc(Oc2ccc(C(C)N(C)c3ncc4c(N)nc(N)nc4n3)cc2)c1 (stereo not drawn)", "inhibition": "Active"}

---

Test target: NAD-dependent protein deacetylase (Schistosoma mansoni)
Sequence (T1VXA1 whole entry): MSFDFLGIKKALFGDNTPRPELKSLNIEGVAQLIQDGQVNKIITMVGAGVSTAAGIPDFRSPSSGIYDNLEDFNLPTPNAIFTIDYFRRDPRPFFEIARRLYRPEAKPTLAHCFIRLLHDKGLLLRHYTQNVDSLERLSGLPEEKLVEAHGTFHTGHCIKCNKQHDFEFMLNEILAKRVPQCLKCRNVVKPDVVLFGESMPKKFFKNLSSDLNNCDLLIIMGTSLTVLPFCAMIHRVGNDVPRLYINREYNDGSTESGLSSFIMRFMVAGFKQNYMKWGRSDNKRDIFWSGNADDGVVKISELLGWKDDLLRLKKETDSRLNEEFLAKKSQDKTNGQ
Experiment description: Inhibition of recombinant Schistosoma mansoni sirtuin 2 (21 to 322 residues) expressed in Escherichia coli BL21(DE3) cells using ZMAL as substrate after 1 hr in presence of NAD+ by homogeneous fluorescence based analysis
pIC50: −log10 of the molar value.
Note to self: values exactly at 5 are T. So pIC50 at or above 5 is T, below is F.

Observe how each entry below is paired with its result.
{"Compound": "COc1ccc(Oc2ccc(C(C)N(C)c3ncc4c(N)nc(N)nc4n3)cc2)cc1OC (configuration not stated)", "Class": "F"}
{"Compound": "COC1=C(OC)C(=O)C(CCCCCCCCCCO)=C(C)C1=O", "Class": "T"}

query: Hello, I need to know if COc1ccc(Oc2ccc(C(c3ccccc3)N(C)c3ncc4c(N)nc(N)nc4n3)cc2)cc1 (configuration not stated) has measured pIC50 not below 5. Thanks!
result: T

query: Hello, I need to know if COc1cccc(Oc2ccc(C(C)N(C)c3ncc4c(N)nc(N)nc4n3)cc2)c1 (configuration not stated) has measured pIC50 not below 5. Thanks!
result: F

query: Hello, I need to know if COc1cc(OC)cc(Sc2ccc(C(C)N(C)c3ncc4c(N)nc(N)nc4n3)cc2)c1 (configuration not stated) has measured pIC50 not below 5. Thanks!
result: T

---

Test target: NAD-dependent protein deacetylase (Schistosoma mansoni, UniProt T1VXA1)
Experiment description: Inhibition of recombinant Schistosoma mansoni sirtuin 2 (21 to 322 residues) expressed in Escherichia coli BL21(DE3) cells using ZMAL as substrate after 1 hr in presence of NAD+ by homogeneous fluorescence based analysis
Entries and their IC50 values follow.
Write the answer as a number in µM, unit excluded.

Use these answered entries as a reference point.
{"Molecule": "COc1cc(OC)cc(Sc2ccc(C(c3ccccc3)N(C)c3ncc4c(N)nc(N)nc4n3)cc2)c1 (stereo not given)", "IC50 (µM)": 2}
{"Molecule": "O=C(c1cc2cc(Cl)ccc2[nH]1)N1CCCCC1c1cccnc1 (stereo not given)", "IC50 (µM)": 18.2}
{"Molecule": "COc1ccc(Oc2ccc(C(C(C)C)N(C)c3ncc4c(N)nc(N)nc4n3)cc2)cc1 (stereo not given)", "IC50 (µM)": 27.7}

query: Find the measured IC50: item COc1cc(OC)cc(Oc2ccc(C(c3ccccc3)N(C)c3ncc4c(N)nc(N)nc4n3)cc2)c1 (stereo not given) , target or system NAD-dependent protein deacetylase (Schistosoma mansoni, UniProt T1VXA1).
result: 3.3

---

Test target: NAD-dependent protein deacetylase (Schistosoma mansoni) (UniProt T1VXA1)
Sequence (whole entry): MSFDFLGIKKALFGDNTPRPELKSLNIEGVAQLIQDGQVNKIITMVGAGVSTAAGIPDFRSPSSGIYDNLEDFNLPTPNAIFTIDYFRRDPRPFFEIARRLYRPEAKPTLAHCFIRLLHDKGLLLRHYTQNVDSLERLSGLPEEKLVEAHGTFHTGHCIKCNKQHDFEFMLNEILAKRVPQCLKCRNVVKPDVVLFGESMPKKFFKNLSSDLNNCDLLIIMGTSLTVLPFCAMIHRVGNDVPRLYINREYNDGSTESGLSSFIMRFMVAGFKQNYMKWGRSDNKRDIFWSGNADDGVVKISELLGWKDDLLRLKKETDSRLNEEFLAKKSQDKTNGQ
Experiment description: Inhibition of recombinant Schistosoma mansoni sirtuin 2 (21 to 322 residues) expressed in Escherichia coli BL21(DE3) cells assessed as inhibition of substrate demyristoylation at 20 uM using (Z)-(Myr)-Lys-AMC as susbtrate after 1 hr in presence of NAD+ by homogeneous fluorescence based analysis relative to control
Quantity measured: inhibition

Use these answered entries as a reference point.
{"Molecule": "COc1cc(OC)cc(Oc2ccc(C(c3ccccc3)N(C)c3ncc4c(N)nc(N)nc4n3)cc2)c1 (stereo not drawn)", "Test target": "NAD-dependent protein deacetylase (Schistosoma mansoni) (UniProt T1VXA1)", "Reported measurement": "< 15%"}
{"Molecule": "COc1ccc(C(=O)Nc2ccc(C(C)N(C)c3ncc4c(N)nc(N)nc4n3)cc2)cc1 (stereo not drawn)", "Test target": "NAD-dependent protein deacetylase (Schistosoma mansoni) (UniProt T1VXA1)", "Reported measurement": "< 15%"}

query: Find the measured inhibition: item CSc1ccc(Oc2ccc(C(C)N(C)c3ncc4c(N)nc(N)nc4n3)cc2)cc1 (stereo not drawn) , target or system NAD-dependent protein deacetylase (Schistosoma mansoni) (UniProt T1VXA1).
result: < 15%

---

Test target: NAD-dependent protein deacetylase (Schistosoma mansoni) (UniProt T1VXA1)
Experiment description: Inhibition of recombinant Schistosoma mansoni sirtuin 2 (21 to 322 residues) expressed in Escherichia coli BL21(DE3) cells at 25 uM using ZMAL as susbtrate after 1 hr in presence of NAD+ by homogeneous fluorescence based analysis relative to control
Entries and their inhibition values follow.

{"Compound": "CNC(C)c1ccc(Oc2ccccc2)cc1 (stereo not drawn)", "inhibition": "< 15%"}
{"Compound": "COc1ccc(Oc2ccc(CN(C)c3ncc4c(N)nc(N)nc4n3)cc2)cc1", "inhibition": "< 15%"}

Turning now to a further record.
query: Name the reported inhibition value associated with the compound CC(Nc1ncc2c(N)nc(N)nc2n1)c1ccccc1 (stereo not drawn)
result: < 15%
